- measured.target: system Xc^− (Homo sapiens, UniProt Q9UPY5)
- measurement.description: Cystine-induced glutamate release assay
- Format: cell-based
- Parameters: endogenous in cells; host or cells: H4 cells
- condition.description: H4 cells, sodium-free HEPES buffer, 50 μM L-Cystine, 2 hours, Amplex Red glutamate readout; read-out: pIC50 Cystine-induced glutamate release assay (converted)
outcome.measure: IC50

{"compound": "Cc1cc2c(c(O)n1)-c1cccnc1C(C)C(=O)N2CC(=O)Nc1ccc(C(F)(F)F)cc1 (single isomer, unassigned)", "IC50": "15.8 to 39.8 nM"}
{"compound": "Cc1cc2c(c(C#N)n1)-c1cccnc1CC(=O)N2CC(=O)Nc1ccc(C(F)(F)F)cc1", "IC50": "15.8 to 39.8 nM"}
{"compound": "Cc1cc2c(c(F)n1)-c1cccnc1[C@@H](C)C(=O)N2CC(=O)Nc1ccc2c(c1)nnn2C", "IC50": "39.8 to 100 nM"}
{"compound": "Cc1cc2c(c(=O)n1C)-c1cccnc1[C@@H](C)C(=O)N2CC(=O)Nc1ccc(C(F)(F)F)cc1 (single isomer, unassigned)", "IC50": "< 15.8 nM"}
{"compound": "Cc1cc2c(c(O)n1)-c1ccccc1CC(=O)N2CC(=O)Nc1ccc(C(F)(F)F)cc1", "IC50": "39.8 to 100 nM"}

Prompt: Bench note: what IC50 did "Cc1cc2c(nc1C)-c1ccccc1CC(=O)N2CC(=O)Nc1ccc(C(F)(F)F)cc1" show?
Response: 100 to 501 nM

Prompt: # repeat for Cc1cc2c(c(Cl)n1)-c1ccnnc1C(C)C(=O)N2CC(=O)Nc1ccc(Cl)c(F)c1 (single isomer, unassigned)
Response: < 15.8 nM

Prompt: And then "Cc1cc2c(c(C#N)n1)-c1ccccc1CC(=O)N2CC(=O)Nc1ccc(C(F)(F)F)cc1" , what is it?
Response: 15.8 to 39.8 nM

Prompt: And for Cc1cc2c(c(F)n1)-c1cnccc1C(C)C(=O)N2CC(=O)Nc1ccc(C(F)(F)F)cc1 (centres unmarked) ?
Response: 39.8 to 100 nM

Prompt: Request: CC1C(=O)N(CC(=O)Nc2ccc(Cl)c(F)c2)c2cc(Cl)cc(F)c2-c2cnncc21 (single isomer, unassigned)
Response: 15.8 to 39.8 nM

Prompt: // query: Cc1cc2c(c(F)n1)-c1ccnn1[C@@H](C)C(=O)N2CC(=O)Nc1ccc(C(F)(F)F)cc1 (single isomer, unassigned)
Response: 39.8 to 100 nM

====

- measured.target: system Xc^− (Homo sapiens, UniProt Q9UPY5)
- Sequence (Q9UPY5 1-501): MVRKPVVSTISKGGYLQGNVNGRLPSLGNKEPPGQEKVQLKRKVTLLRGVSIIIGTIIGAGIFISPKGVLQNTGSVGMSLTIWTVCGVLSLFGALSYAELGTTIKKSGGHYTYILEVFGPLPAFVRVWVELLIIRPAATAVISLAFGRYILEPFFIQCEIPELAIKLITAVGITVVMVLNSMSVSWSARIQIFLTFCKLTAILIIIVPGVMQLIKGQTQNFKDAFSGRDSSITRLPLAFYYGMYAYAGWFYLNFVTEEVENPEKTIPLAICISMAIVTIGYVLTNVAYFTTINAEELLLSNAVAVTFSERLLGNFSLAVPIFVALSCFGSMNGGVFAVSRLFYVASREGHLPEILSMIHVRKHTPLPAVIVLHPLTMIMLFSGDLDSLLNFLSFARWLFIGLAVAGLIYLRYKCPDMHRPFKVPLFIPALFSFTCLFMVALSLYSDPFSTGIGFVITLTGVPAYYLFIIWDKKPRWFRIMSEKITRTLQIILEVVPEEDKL
- Sequence (P08195 1-529 partner): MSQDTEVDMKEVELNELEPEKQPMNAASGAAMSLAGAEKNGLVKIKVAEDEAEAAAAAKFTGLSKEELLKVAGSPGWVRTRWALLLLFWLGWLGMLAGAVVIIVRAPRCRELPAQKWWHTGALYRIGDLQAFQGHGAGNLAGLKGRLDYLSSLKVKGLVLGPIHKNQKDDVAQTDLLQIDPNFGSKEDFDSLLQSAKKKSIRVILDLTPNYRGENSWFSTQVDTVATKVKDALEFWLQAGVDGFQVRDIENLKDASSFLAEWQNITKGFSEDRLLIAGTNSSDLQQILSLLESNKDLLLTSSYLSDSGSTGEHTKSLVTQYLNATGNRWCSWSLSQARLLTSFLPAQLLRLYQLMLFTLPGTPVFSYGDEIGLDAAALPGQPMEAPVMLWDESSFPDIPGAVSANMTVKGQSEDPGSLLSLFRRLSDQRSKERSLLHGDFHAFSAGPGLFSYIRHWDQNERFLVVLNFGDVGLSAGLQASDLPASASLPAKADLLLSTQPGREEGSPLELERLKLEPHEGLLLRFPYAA
- measurement.description: Cystine-induced glutamate release assay
- Format: cell-based
- Set-up: endogenous in cells; host or cells: H4 cells
- condition.description: H4 cells, sodium-free HEPES buffer, 50 μM L-Cystine, 2 hours, Amplex Red glutamate readout; read-out: pIC50 Cystine-induced glutamate release assay (converted)
- Experimental: The effect of compounds of Formula (I) on the system Xc^− functionality was examined in two independent cell assays: (i) measurement of cystine-induced glutamate release; and (ii) measurement of [^14C]L-Cystine uptake. […] In this assay, the medium is devoid of sodium to prevent the transport of glutamate by sodium-dependent excitatory amino acid transporters (EAATs). […] Fluorescence intensity was measured by EnVision microplate reader (PerkinElmer).
outcome.measure: IC50

Some solved cases for reference:
{"compound": "CC1C(=O)N(CC(=O)Nc2ccc(C(F)F)cc2)c2cc(N3CCC(F)(F)C3)nc(F)c2-c2cccnc21 (single isomer, unassigned) [#278]", "outcome.measure": "IC50", "recorded.measurement": "39.8 to 100 nM"}
{"compound": "O=C(CN1C(=O)C(O)c2ncc(F)cc2-c2c(F)cc(F)cc21)Nc1ccc(C(F)F)cc1 (single isomer, unassigned) [#318]", "outcome.measure": "IC50", "recorded.measurement": "< 15.8 nM"}

Prompt: Give its IC50 value. Item: Cc1cc2c(c(F)n1)-c1cnccc1C(C)C(=O)N2CC(=O)Nc1ccc(C(F)F)cc1 (single isomer, unassigned) [#259]
Response: < 15.8 nM

Prompt: Now the same for CN1CC(c2cc3c(c(Cl)n2)-c2cccnc2CC(=O)N3CC(=O)Nc2ccc(C(F)(F)F)cc2)C1 [#170]
Response: 39.8 to 100 nM

Prompt: Same thing, different compound: Cc1cc2c(c(=O)n1C)-c1cccnc1[C@@H](C)C(=O)N2CC(=O)Nc1ccc(C(F)F)cc1 (single isomer, unassigned) [#177]
Response: < 15.8 nM
